Tested on: NCI-H522 lung
experiment: NCI-60 one-dose screen, 48 h
particulars: 10 µM unless noted
Protocol: Growth inhibition of the NCI-H522 human Non-Small Cell Lung tumor cell line is measured as a screen for anti-cancer activity. Cells are grown in 96 well plates and exposed to the test compound for 48 hours. Compounds are tested at a single concentration, which is 10^-5 M for most compounds. The reported endpoint is percent growth (GI% or GIPRCNT), where numbers from 0 - 100% represent growth inhibition, and numbers from -100% - 0 represent cell death. […]
About 83,000 compounds went through this panel and 20% of them were active in at least one assay; those are over-represented in the sample as a whole. Activity calls are given as the source filed them. How the source made its calls: active means growth percent below 10; inactive means the rest.
Choose the fitting class; nothing outside 1.0 for active, 0.0 for inactive is accepted.

Tell me the recorded outcome of this test for `CC/C=C\C[C@H]1C/C=C2/C(=O)C=C[C@H]2C/C=C\CCCC(=O)O1` . 1.0

// outcome(item) with item = `COc1ccc(/C=C\c2cc(OC)c(OC)c(OC)c2)cc1OCC(=O)Nc1ccc2nc(C)sc2c1` 1.0

Recorded test outcome, item O=C1NC(=O)C(c2ccc(Cl)cc2Cl)N1 (configuration not stated) 0.0

What classification did COc1cccc(C2=NN3C(C2)c2cc(Br)cc(OC)c2OC32CCN(Cc3ccccc3)CC2)c1 (configuration not stated) end up with in this test? 0.0

What did this assay record as the result for `Cn1cc(C(=O)c2nc(-c3c[nH]c4ccccc34)no2)c2ccccc21` ? 0.0

// outcome(item) with item = `O=S(=O)(Nc1ccc(NS(=O)(=O)c2ccccc2)c(Cl)c1)c1ccccc1` 0.0

# outcome recorded in this test, key = `Fc1ccc(CNc2cccc3[nH]c(C(F)(F)F)nc23)cc1` 0.0

For O=C1/C(=C/N2N=C(c3ccc4ccccc4c3)CC2c2ccccc2O)SC(=S)N1c1cccnc1 (configuration not stated) , what call appears in the results of this test? 0.0

Would you mind telling me which call this test gave `CC(C)(CCCN=C(N)Nc1ccc(Cl)cc1)c1ccc(F)cc1` ? 0.0

// outcome(item) with item = `O=C(COc1cccc(/C=C2\COc3ccccc3C2=O)c1)Nc1nccs1` 1.0

For `C#CC(F)(F)[C@]1(O)CC[C@H]2[C@@H]3CCC4=CC(=O)CCC4=C3[C@@H](c3ccc(C(C)=O)cc3)C[C@@]21C` , which call appears in the assay record? 1.0

// return assay outcome for `C=CC(=O)Nc1cccc(-c2nc(SC)nc(Nc3ccccc3OC)c2C#N)c1` 0.0

Please let me know the test result on file for `Fc1ccc2[nH]cc(SSc3c[nH]c4ccc(F)cc34)c2c1` . 1.0

Hello, I am checking results. What call was entered for `O=C(CN1C(=O)/C(=C/c2ccc(Cl)cc2)SC1=S)NCCCN1CCOCC1` ? 0.0

Tell me the assay call for `Cc1cc(C)nc(SC2=C(Nc3ccc(C)c(Cl)c3)C(=O)N(Cc3ccccc3)C2=O)n1` please. 0.0

How did this test come out for `C=C(C)[C@@H]1CC[C@]2(C(=O)OC)CC[C@]3(C)[C@H](CC[C@@H]4[C@@]5(C)C/C(=C/c6ccc(OC)cc6)C(=O)C(C)(C)[C@@H]5CC[C@]43C)[C@@H]12` ? 0.0

Hey, what did the test say about Nc1n[nH]c2cc(F)c([C@@H]3Nc4ccc5[nH]ncc5c4[C@H]4C5CCC(C5)[C@@H]34)cc12 (some centres not stated) ? 1.0

Record request — test call for `COc1ccc(-c2cc(Nc3ccnc(N4CCOCC4)n3)on2)cc1` 1.0

Assay outcome for `C=C1c2nc3ccccc3n2C=C(c2cccc(Cl)c2)N1Cc1ccc(OC)cc1` : what was it? 1.0

State the result this test recorded for `COc1cc(C(=O)/C=C/c2cccnc2Nc2ccc(Cl)cc2)cc(OC)c1OC` . 1.0

In this assay, the call recorded for `Cc1cc(N2CCOCC2)nc(NCc2cc(Nc3ccnc4cc(Cl)ccc34)ccc2F)n1` was what? 1.0

# fetch the recorded call for `O=C(/C=C/C=C/c1ccc2c(c1)OCO2)N/N=C\c1ccc(O)cc1O` here 0.0

Which outcome did this test record for the compound `CSc1nc(NCCO)c(C#N)c(-c2cccc([N+](=O)[O-])c2)n1` ? 0.0

What outcome does the record of this test show for `CN(C)[C@@H]1C(=O)C(C(=O)NCc2nc3[nH]cnc(=S)c3[nH]2)=C(O)[C@@]2(O)C(=O)C3=C(O)c4c(O)cccc4[C@@](C)(O)[C@H]3C[C@@H]12` ? 0.0

Write down the call the test reported for this compound. Item: `Cn1c(NCCc2ccc(O)c(O)c2)nc2c1c(=O)n(Cc1ccc(Br)cc1)c(=O)n2C` 1.0

Per the records of this test, what outcome belongs to CCOC(=O)C(C)(C#N)C1C=CCCC1 (configuration not stated) ? 0.0

What outcome does the record of this test show for `COc1cc(/C=C/c2cc(O)c3cc(C(C)=O)c(=O)oc3c2)cc2c1O[C@]1(C)CC[C@@H](O)C(C)(C)[C@H]1C2` ? 0.0

For this compound, state the assay outcome: `Cc1nn(-c2ccc(F)cc2)c2ncnc(Nc3ccc(NC(=O)Nc4ccc(Cl)c(C(F)(F)F)c4)cc3)c12` 0.0

Dear colleague, could you share the recorded outcome for `COc1ccc(-c2nc(SCC(=O)Nc3ccc(C(=O)/C=C/c4ccc(Cl)cc4)cc3)[nH]c(=O)c2C#N)cc1` when you have a moment? 0.0

Dear all, I need the recorded test outcome for `O=C(CCCCC(=O)N/N=C\c1ccccc1O)N/N=C\c1ccccc1O` , thank you. 0.0

Per the assay record, what outcome was assigned to `COc1cc(-c2nc3ccccc3[nH]2)ccc1OCC(=O)N=Nc1c(O)[nH]c2ccc(Cl)cc12` ? 1.0

Answer briefly: the call reported for `COc1cc2c(cc1O)CC[C@@H]1[C@@H]2CC[C@]2(C)[C@@H](OCCCN(C)C)CC[C@@H]12` in this assay. 1.0

State the result this test recorded for `N#CN1CC[C@H](C(=O)Nc2cc3cc(C(N)=O)ccc3cn2)C1` . 1.0

Any idea what this test logged for C/C1=C\CC[C@@]2(C)O[C@H]2[C@H]2OC(=O)C(CN3CCN(CC4C(=O)O[C@H]5[C@H]4CC/C(C)=C/CC[C@@]4(C)O[C@@H]54)CC3)[C@@H]2CC1 (some centres not stated) ? 0.0

Each compound tested received a call. Report the one for `CSc1ccc(-c2n[nH]nc2-c2cc3ccccc3s2)cc1` . 1.0

Field: outcome | Entry: `O=C1C=CC(=O)N1c1ccc2c(c1)Cc1cc(F)ccc1-2` 0.0

Test call, this compound: `NS(=O)(=O)c1ccc(CN=C2NC(=O)S/C2=C\c2ccc(Br)cc2)cc1` 0.0

====

Tested on: HOP-62 NSCLC
experiment: NCI-60 one-dose screen, 48 h
particulars: 10 µM unless noted
Compounds without any hit were thinned out: in the full panel of roughly 83,000, 20% have a hit. The source made the active and inactive calls. The calls were made as follows: active = growth percent below 10; inactive = the rest.
Permitted responses: active, inactive

What did this assay record as the result for `CCCCn1c(-c2ccc(C(=O)O/N=C(\N)c3ccc4ccccc4c3)cc2)nc(-c2ccccc2)c1-c1ccccc1` ? inactive

What outcome does the record of this test show for CC(C)C[C@@H](NC(=O)[C@@H](Cc1ccccc1)NC(=O)c1cnccn1)B1Oc2ccc(C[C@H](NC(=O)[C@H](Cc3ccc4c(c3)OB([C@@H](CC(C)C)NC(=O)[C@@H](Cc3ccccc3)NC(=O)c3cnccn3)O4)NC(=O)[C@@H](N)CC3CCC4OB([C@@H](CC(C)C)NC(=O)[C@@H](CC5CCCCC5)NC(=O)C5CNCCN5)OC4C3)C(=O)NCCCC[C@@H]3NC(=O)[C@@H](Cc4ccccc4)NC(=O)[C@H](CC(=O)O)NC(=O)CNC(=O)[C@H](CCCNC(=N)N)NC3=O)cc2O1 (some centres not stated) ? active

Call for entry `CN(C)c1ccc(N=Nc2ccccn2)c(O)c1` : active

GET /call?item= `COc1ccc2c(c1)CC/C(=C\c1cncc(Br)c1)C2=O` returns the recorded outcome of this test. inactive

Tell me the assay call for `O=C(CN1CCCCC1)Nc1ccc2oc(=O)ccc2c1` please. inactive

What classification did `CCOc1nc(-c2ccccc2)cc2c(O)c(C(=O)N/N=C/c3ccc(O)cc3O)[nH]c(=O)c12` end up with in this test? inactive

For `Cc1ccc(NS(=O)(=O)c2ccc(-c3cnc(C4CC4)o3)cc2)cc1C` , which call appears in the assay record? inactive

I would be grateful if you could indicate the recorded call for `O=C(CCCCC(=O)N/N=C\c1ccccc1O)N/N=C\c1ccccc1O` . inactive

Assay outcome for `CSc1nc(Nc2cccc(NC(=O)/C(C#N)=C/c3c(Cl)cccc3Cl)c2)c(C#N)c(-c2cccc([N+](=O)[O-])c2)n1` : what was it? inactive

Any idea what this test logged for `COc1ccc(C(=O)/C=C/c2cccnc2Nc2cc(OC)c(OC)c(OC)c2)cc1` ? inactive

Each compound tested received a call. Report the one for `Nc1ccn(-c2ccc(Br)cc2)c(=O)n1` . inactive

For `CC(=O)Nc1ccc(-n2c(O)c(/C=N/NC(=O)Cc3ccccc3Nc3c(Cl)cccc3Cl)sc2=S)cc1` , which call appears in the assay record? inactive

What did the test return for `CSc1nc(NCCO)c(C#N)c(-c2cccc([N+](=O)[O-])c2)n1` ? inactive

Just curious, what result did `O=C(COc1ccc(/C=C2\CSc3ccccc3C2=O)cc1)Nc1nccs1` get here? inactive

Name the outcome recorded for `COc1cc2c(cc1-c1c(C)noc1C)ncc1nc(C3CCCC3)n([C@H](C)COC(F)F)c12` in the assay. inactive

Please state the recorded outcome for this compound: `CC(C)(C)c1cc(C(C)(C)C)cc(S(=O)(=O)Nc2cc3ccccc3cc2C(=O)NCCN)c1` inactive

Please state the recorded outcome for this compound: `O=C1/C(=C/c2ccc(Cl)cc2)SC(=S)N1CCc1ccc(O)cc1` inactive

What did this assay record as the result for `Cc1cc2c3ccccc3ccc2[n+]2ccccc12` ? active

Answer briefly: the call reported for Cc1cc(N2CCCCC2)nc(NC2CCCC(Nc3ccnc4cc(Cl)ccc34)C2)n1 (configuration not stated) in this assay. active

For `Cc1cc(NS(=O)(=O)c2ccc(-c3cnc(C4CC4)o3)cc2)ccc1Cl` , which call appears in the assay record? inactive

Hi, do you know how `CC/C=C\C[C@H]1C/C=C2/C(=O)C=C[C@H]2C/C=C\CCCC(=O)O1` came out in this test? inactive

Hi team, can someone confirm the assay call for CCOc1cc2ncc(C#N)c(Nc3ccc(F)c(Cl)c3)c2cc1NC(=O)CC1CCSS1 (configuration not stated) ? active

Identify the outcome logged in this assay for the compound shown: `Cc1[nH]c(-c2cc(N)ccc2Cl)c2c1C(=O)CCCC2` inactive

Per the assay record, what outcome was assigned to `OCCN1CCN(c2nc(Nc3ccc(-c4nc5ccccc5[nH]4)cc3)c3cn[nH]c3n2)CC1` ? active

Give the logged outcome of this assay for the following compound: `Nc1ccc(S(=O)(=O)O)c2ccc(N=Nc3ccc(N=Nc4ccc(S(=O)(=O)O)cc4)c4ccccc34)c(O)c12` inactive

Which outcome was assigned to `O=C(N=Nc1c(O)[nH]c2ccc(Br)cc12)c1cc(-c2ccccc2)on1` in this test? inactive

For this compound, state the assay outcome: `COc1ccc(-n2nc(C)c3c(Nc4ccc(NC(=O)Nc5c(Cl)cccc5Cl)cc4)ncnc32)cc1` inactive

Test call, this compound: `O=C1C=C(OCC=C(Cl)Cl)C(=O)c2ccccc21` inactive

What call does the record list for `COc1cccc(-c2nn(C(C)(C)C)cc2-c2ccnc(NCCCNS(=O)(=O)c3ccc(C)cc3)c2)c1` ? inactive

Outcome? `CCCCN(CCCC)CCCn1c(-c2ccccc2)ccc1-c1ccccc1` inactive

Please indicate how the test categorized `O=c1cc(/C(=C2/C=CC=N2)c2ccc[nH]2)c2cc(Cl)ccc2o1` . inactive

Status in this test for `Cc1nn(-c2cc(=O)[nH]c3ccccc23)c(N)c1C#N` ? inactive

What was the test verdict on `OCc1ccc(N2CCc3cccc(F)c3C2)cc1Cl` ? inactive

Please indicate how the test categorized `CC(=O)c1nc2ccccc2n1CC(=O)c1cccc(Cl)c1` . inactive

Field: outcome | Entry: `CSc1nc(-c2cccc(NC(=O)CCl)c2)c(C#N)c(=O)n1C` inactive

# fetch the recorded call for `CC(C)(O)c1cn(CCCCN2C(=O)C(=O)c3ccccc32)nn1` here inactive

Per the records of this test, what outcome belongs to `N#CCCN=Nc1c(O)[nH]c2ccc([N+](=O)[O-])cc12` ? inactive
